- Species on record: Rattus norvegicus
- Procedure Summary: Open TG-GATES - Regimen: Daily Repeat
- Format: toxicity, organism-based, Sprague-Dawley
- Parameters: regimen Daily Repeat, gender Male, age 6 weeks
- Particulars: in vivo, po, 0 mg/kg, […], tissue Kidney, route gavage, dose level Control, time 14 day
Parameter Measured: KIDNEY_TOTAL (g)
Express it in g; write the number only.

Some solved entries appear below for comparison.
> print(dat)
                                   compound  unit.string  reported
1            O=C(O)Cc1ccccc1Nc1c(Cl)cccc1Cl            g       2.6
2              Clc1c(Cl)c(Cl)c(Cl)c(Cl)c1Cl            g       2.6
3  C#C[C@]1(O)CC[C@H]2[C@@H]3CCC4=Cc5oncc5C[C@]4(C)[C@H]3CC[C@@]21C            g       2.7
4  CC(=O)Nc1nnc(S(N)(=O)=O)s1 [ACETAZOLAMIDE]            g       2.4
5  CN1C(C(=O)Nc2ccccn2)=C(O)c2sc(Cl)cc2S1(=O)=O            g       2.6

Query: Recorded KIDNEY_TOTAL of CN(C)[C@@H]1C(O)=C(C(N)=O)C(=O)[C@@]2(O)C(O)=C3C(=O)c4c(O)cccc4[C@@](C)(O)[C@H]3C[C@@H]12 , please.
Result: 2.3

Query: // same read-out, input: C1CCC(C(CC2CCCCN2)C2CCCCC2)CC1 (stereo not given)
Result: 2.3

Query: // same read-out, input: CCOC(=O)[C@H](CCc1ccccc1)N[C@@H](C)C(=O)N1CCC[C@H]1C(=O)O
Result: 2.6

Query: // same read-out, input: CC(CN1c2ccccc2Sc2ccccc21)N(C)C (stereo not given)
Result: 2.5

Query: // same read-out, input: Cc1cccc(Nc2ccccc2C(=O)O)c1C
Result: 2.4

* * *

As shown below, each of these compounds has a reported ALT value.
- Species on record: Rattus norvegicus
- Procedure Summary: Open TG-GATES - Regimen: Daily Repeat
- Assay type: toxicity, organism-based, Sprague-Dawley
- Set-up: regimen Daily Repeat, gender Male, age 6 weeks
- Particulars: in vivo, po, 0 mg/kg, […], tissue Plasma, route gavage, dose level Control, time 28 day
Express it in IU/L; write the number only.

Some solved entries appear below for comparison.
> print(dat)
                                   compound  reported
1  CN1C(C(=O)Nc2ccccn2)=C(O)c2sc(Cl)cc2S1(=O)=O      33.6
2               Cc1cccc(Nc2ccccc2C(=O)O)c1C      33.4
3  C#C[C@]1(O)CC[C@H]2[C@@H]3CCC4=Cc5oncc5C[C@]4(C)[C@H]3CC[C@@]21C      41.8

Query: Recorded ALT of CC(CN1c2ccccc2Sc2ccccc21)N(C)C (centres undefined) , please.
Result: 42.4

Query: // same read-out, input: CC(=O)Nc1nnc(S(N)(=O)=O)s1 [ACETAZOLAMIDE]
Result: 40.6

Query: // same read-out, input: Clc1c(Cl)c(Cl)c(Cl)c(Cl)c1Cl
Result: 32.6

Query: // same read-out, input: CN(C)[C@@H]1C(O)=C(C(N)=O)C(=O)[C@@]2(O)C(O)=C3C(=O)c4c(O)cccc4[C@@](C)(O)[C@H]3C[C@@H]12
Result: 31.2

Query: // same read-out, input: C1CCC(C(CC2CCCCN2)C2CCCCC2)CC1 (centres undefined)
Result: 34.4

Query: // same read-out, input: CCOC(=O)[C@H](CCc1ccccc1)N[C@@H](C)C(=O)N1CCC[C@H]1C(=O)O
Result: 29.2

* * *

- Species on record: Rattus norvegicus
- Procedure Summary: Open TG-GATES - Regimen: Single
- Assay type: toxicity, organism-based, Sprague-Dawley
- Design: regimen Single, gender Male, age 6 weeks
- Particulars: in vivo, po, 0 mg/kg, 24 h, tissue Plasma, route gavage, dose level Control
Parameter Measured: ALP (IU/L)
Express it in IU/L; write the number only.

Query: Recorded ALP of CC(CN1c2ccccc2Sc2ccccc21)N(C)C (stereo unspecified) [PROMETHAZINE] , please.
Result: 1690.8

Query: // same read-out, input: Cc1cccc(Nc2ccccc2C(=O)O)c1C [MEFENAMIC ACID]
Result: 943.6

Query: // same read-out, input: C1CCC(C(CC2CCCCN2)C2CCCCC2)CC1 (stereo unspecified) [PERHEXILINE]
Result: 1688.8

Query: // same read-out, input: COc1cc([C@@H]2c3cc4c(cc3[C@@H](O[C@@H]3O[C@@H]5CO[C@@H](C)O[C@H]5[C@H](O)[C@H]3O)[C@H]3COC(=O)[C@H]23)OCO4)cc(OC)c1O [ETOPOSIDE]
Result: 866

Query: // same read-out, input: CC(=O)Nc1nnc(S(N)(=O)=O)s1 [ACETAZOLAMIDE]
Result: 1945.2

Query: // same read-out, input: Clc1c(Cl)c(Cl)c(Cl)c(Cl)c1Cl [PERCHLOROBENZENE]
Result: 981.2

Query: // same read-out, input: C#C[C@]1(O)CC[C@H]2[C@@H]3CCC4=Cc5oncc5C[C@]4(C)[C@H]3CC[C@@]21C [DANAZOL]
Result: 1604

Query: // same read-out, input: CN1C(C(=O)Nc2ccccn2)=C(O)c2sc(Cl)cc2S1(=O)=O [LORNOXICAM]
Result: 874.6

Query: // same read-out, input: CN(C)[C@@H]1C(O)=C(C(N)=O)C(=O)[C@@]2(O)C(O)=C3C(=O)c4c(O)cccc4[C@@](C)(O)[C@H]3C[C@@H]12 [TETRACYCLINE]
Result: 1007

Query: // same read-out, input: CCOC(=O)[C@H](CCc1ccccc1)N[C@@H](C)C(=O)N1CCC[C@H]1C(=O)O
Result: 834.2

Query: // same read-out, input: O=[N+]([O-])c1ccc2c(c1)Cc1ccccc1-2 [2-NITROFLUORENE]
Result: 1444.8

* * *

- Species on record: Rattus norvegicus
- Procedure Summary: Open TG-GATES - Regimen: Single
- Format: toxicity, organism-based, Sprague-Dawley
- Parameters: regimen Single, gender Male, age 6 weeks
- Particulars: in vivo, po, 0 mg/kg, 9 h, tissue Blood, route gavage, dose level Control
As shown below, each of these compounds has a reported APTT value.
Express it in s; write the number only.

Some solved entries appear below for comparison.
Compound	APTT / s
Cc1cccc(Nc2ccccc2C(=O)O)c1C	18.8
CC(CN1c2ccccc2Sc2ccccc21)N(C)C (stereo not given)	22.2
C1CCC(C(CC2CCCCN2)C2CCCCC2)CC1 (stereo not given)	21.8
CC(=O)Nc1nnc(S(N)(=O)=O)s1 [ACETAZOLAMIDE]	21.9
Clc1c(Cl)c(Cl)c(Cl)c(Cl)c1Cl	21.3
CN1C(C(=O)Nc2ccccn2)=C(O)c2sc(Cl)cc2S1(=O)=O	20.3
C#C[C@]1(O)CC[C@H]2[C@@H]3CCC4=Cc5oncc5C[C@]4(C)[C@H]3CC[C@@]21C	22.7
CN(C)[C@@H]1C(O)=C(C(N)=O)C(=O)[C@@]2(O)C(O)=C3C(=O)c4c(O)cccc4[C@@](C)(O)[C@H]3C[C@@H]12	16.9

Query: Recorded APTT of COc1cc([C@@H]2c3cc4c(cc3[C@@H](O[C@@H]3O[C@@H]5CO[C@@H](C)O[C@H]5[C@H](O)[C@H]3O)[C@H]3COC(=O)[C@H]23)OCO4)cc(OC)c1O [ETOPOSIDE] , please.
Result: 16.9

Query: // same read-out, input: CCOC(=O)[C@H](CCc1ccccc1)N[C@@H](C)C(=O)N1CCC[C@H]1C(=O)O
Result: 16.5

* * *

- Species: Rattus norvegicus
- Procedure Summary: Open TG-GATES - Regimen: Single
- Type: toxicity, organism-based, Sprague-Dawley
- Set-up: regimen Single, gender Male, age 6 weeks
- Particulars: in vivo, po, 0 mg/kg, 6 h, tissue Plasma, route gavage, dose level Control
As shown below, each of these compounds has a reported A/G value.
Provide a numeric answer; units are not to be included.

Query: Recorded A/G of Clc1c(Cl)c(Cl)c(Cl)c(Cl)c1Cl [PERCHLOROBENZENE] , please.
Result: 1.5

Query: // same read-out, input: CN1C(C(=O)Nc2ccccn2)=C(O)c2sc(Cl)cc2S1(=O)=O [LORNOXICAM]
Result: 1.6

Query: // same read-out, input: CCOC(=O)[C@H](CCc1ccccc1)N[C@@H](C)C(=O)N1CCC[C@H]1C(=O)O
Result: 2.2

Query: // same read-out, input: Cc1cccc(Nc2ccccc2C(=O)O)c1C [MEFENAMIC ACID]
Result: 1.6

Query: // same read-out, input: CN(C)[C@@H]1C(O)=C(C(N)=O)C(=O)[C@@]2(O)C(O)=C3C(=O)c4c(O)cccc4[C@@](C)(O)[C@H]3C[C@@H]12 [TETRACYCLINE]
Result: 2.2

Query: // same read-out, input: CC(CN1c2ccccc2Sc2ccccc21)N(C)C (stereo unspecified) [PROMETHAZINE]
Result: 1.3

FYI, the data here is from ChEMBL document CHEMBL3885861.
